tested on: Saccharomyces cerevisiae; assay: protein stability index of tFT-peptide fusion (C-terminal peptide) (PSI (0-1 scale)); higher = more stable (slower turnover); conditions: genetic background: wild type; temperature: 30 C;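 note: PSI is a weighted mean of sequencing reads over stability bins, variants kept only with over 10 reads, mCherry proximal and sfGFP distal, peptide attached via GGGS linker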
Param threshold (0.7) applies to protein stability index; output YES when value >= threshold, NO when value < threshold.

| Polymer Sequence | Answer Label |
| --- | --- |
| WHGSVPHLWFPP | NO |
| FVCCSIRFGCGW | NO |
| LNDYGLADLGII | YES |
| GGGRGVAVVWVV | NO |
| VCTFLLVSFFLS | NO |
| GAWVFLSSRVVH | YES |
| PPPHPLPRPLPT | YES |
| PNGSRPAHGVKN | NO |
| GGGWGAGVRLTW | YES |
| VCIGVGGGVLGL | NO |
| SRMRADRYWRNY | NO |
| GPTPPRSPPAVS | NO |
| RRIIISSSYIYE | NO |
| SLASWLCVFSWD | NO |
| VRMKAAIGNGAE | NO |
| RGCSAVEKARPC | NO |
| VFLVGFRVTLDS | NO |
| GVCAVCRLGLVA | NO |
| SPPLLLPNLCPC | NO |
| LNWMVMLGHGAC | NO |
| LVNSEKFCLSIC | NO |
| LNPPPPPDPPPT | NO |
| HSRGGEPLTPAW | NO |
| PPSHPLTIRPPL | NO |
| QSRAQTFGTSIS | NO |
| FFACHDGYWCGC | YES |
| VLWVLDAFCFGG | NO |
| YFDVFLRLAFSR | NO |

Data provenance: the supplement of paper PMC10724198
